molecular target: human TREM2 (Homo sapiens, UniProt Q9NZC2); construct: expressed in transfected cells; host or cells: HEK293T; test: TREM2 agonist potency by cellular phosphorylation of Syk (AlphaLisa) in HEK293T-hTREM2 cells; type: cell-based; conditions: HEK293 cells expressing human TREM2 and DAP12, Table D
Sequence (Q9NZC2 19-230): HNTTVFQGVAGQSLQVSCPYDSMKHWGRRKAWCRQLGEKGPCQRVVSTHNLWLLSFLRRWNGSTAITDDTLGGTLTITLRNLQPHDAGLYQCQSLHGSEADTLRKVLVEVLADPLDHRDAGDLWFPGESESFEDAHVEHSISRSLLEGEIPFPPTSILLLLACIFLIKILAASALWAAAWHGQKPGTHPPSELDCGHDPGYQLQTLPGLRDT
Sequence (O43914 22-113 partner): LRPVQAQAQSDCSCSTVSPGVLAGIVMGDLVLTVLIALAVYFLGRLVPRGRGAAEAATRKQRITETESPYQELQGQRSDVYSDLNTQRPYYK
pEC50: −log10 of the molar value.
Measured endpoint: pEC50

Examples with their reported pEC50 follow.
# Molecule, Subject of test, Measured result
data = [
    ("COc1ncccc1[C@H]1C[C@@H](c2nc(-c3ccc(F)cc3F)c3nc(C)c(C)nc3n2)CCO1", "human TREM2 (Homo sapiens, UniProt Q9NZC2)", "6.30 to 7.30"),
    ("COc1ccc(-c2nc([C@H]3CCO[C@@H](c4cnn(C5CC5)c4)C3)nc3nc(C)c(C)nc23)cn1", "human TREM2 (Homo sapiens, UniProt Q9NZC2)", "6.30 to 7.30"),
    ("Cc1nc2nc([C@H]3CCO[C@@H](c4cnn(C5CCC5)c4)C3)nc(-c3ccc(F)cc3F)c2nc1C", "human TREM2 (Homo sapiens, UniProt Q9NZC2)", "> 7.30"),
    ("Cc1nc2nc(N3CCOC(c4cc[nH]c(=O)c4)C3)nc(C34CC(C(F)(F)F)(C3)C4)c2nc1C (centres unmarked)", "human TREM2 (Homo sapiens, UniProt Q9NZC2)", "> 7.30"),
]

Kindly consider the entry below.
Exercise: Please supply the value of reported pEC50 for the item "Cc1nc2nc(N3CCN(C)[C@H](c4cnn(C5CC5)c4)C3)nc(-c3ccc(Cl)cc3F)c2nc1C"
Key: > 7.30

* * *

biological target: human TREM2 (Homo sapiens, UniProt Q9NZC2); construct: expressed in transfected cells; host or cells: HEK293T; experiment: TREM2 agonist potency by cellular phosphorylation of Syk (AlphaLisa) in HEK293T-hTREM2 cells; type: cell-based; settings: HEK293 cells expressing human TREM2 and DAP12, Table D-2
pEC50: −log10 of the molar value.
Below, each entry is listed with its recorded pEC50.

Solved entries:
# Molecule, pEC50
records = [
    ("Cc1nc2cc([C@H]3CCO[C@@H](c4cnn(C5CC5)c4)C3)nc(-c3ccc(F)cc3F)c2nc1CO", "6.30 to 7.30"),
    ("Cc1nc2nc(N3C[C@@H](C4CC4)O[C@@H](c4cnn(C(F)F)c4)C3)nc(-c3ccc(C(F)(F)F)cc3F)c2nc1C", "> 7.30"),
    ("Cc1nc2nc(N3C[C@@H](C)O[C@@H](c4cnn(C5CC5)c4F)C3)nc(-c3ccc(F)cc3F)c2nc1C", "> 7.30"),
    ("Cc1nc2nc([C@H]3CC(CO)O[C@@H](c4cnn(C5CC5)c4)C3)nc(-c3ccc(F)cc3F)c2nc1C (stereo in doubt)", "5.52 to 6.30"),
]

Now look at this entry.
Exercise: Please give measured pEC50 of the following entry: "Cc1cc([C@@H]2CN(c3nc(-c4ccc(Cl)cc4F)c4nc(C)c(C)nc4n3)CCO2)no1"
Key: 6.30 to 7.30
